system: P-gp (Homo sapiens, UniProt P08183)
Sequence (P08183 whole entry): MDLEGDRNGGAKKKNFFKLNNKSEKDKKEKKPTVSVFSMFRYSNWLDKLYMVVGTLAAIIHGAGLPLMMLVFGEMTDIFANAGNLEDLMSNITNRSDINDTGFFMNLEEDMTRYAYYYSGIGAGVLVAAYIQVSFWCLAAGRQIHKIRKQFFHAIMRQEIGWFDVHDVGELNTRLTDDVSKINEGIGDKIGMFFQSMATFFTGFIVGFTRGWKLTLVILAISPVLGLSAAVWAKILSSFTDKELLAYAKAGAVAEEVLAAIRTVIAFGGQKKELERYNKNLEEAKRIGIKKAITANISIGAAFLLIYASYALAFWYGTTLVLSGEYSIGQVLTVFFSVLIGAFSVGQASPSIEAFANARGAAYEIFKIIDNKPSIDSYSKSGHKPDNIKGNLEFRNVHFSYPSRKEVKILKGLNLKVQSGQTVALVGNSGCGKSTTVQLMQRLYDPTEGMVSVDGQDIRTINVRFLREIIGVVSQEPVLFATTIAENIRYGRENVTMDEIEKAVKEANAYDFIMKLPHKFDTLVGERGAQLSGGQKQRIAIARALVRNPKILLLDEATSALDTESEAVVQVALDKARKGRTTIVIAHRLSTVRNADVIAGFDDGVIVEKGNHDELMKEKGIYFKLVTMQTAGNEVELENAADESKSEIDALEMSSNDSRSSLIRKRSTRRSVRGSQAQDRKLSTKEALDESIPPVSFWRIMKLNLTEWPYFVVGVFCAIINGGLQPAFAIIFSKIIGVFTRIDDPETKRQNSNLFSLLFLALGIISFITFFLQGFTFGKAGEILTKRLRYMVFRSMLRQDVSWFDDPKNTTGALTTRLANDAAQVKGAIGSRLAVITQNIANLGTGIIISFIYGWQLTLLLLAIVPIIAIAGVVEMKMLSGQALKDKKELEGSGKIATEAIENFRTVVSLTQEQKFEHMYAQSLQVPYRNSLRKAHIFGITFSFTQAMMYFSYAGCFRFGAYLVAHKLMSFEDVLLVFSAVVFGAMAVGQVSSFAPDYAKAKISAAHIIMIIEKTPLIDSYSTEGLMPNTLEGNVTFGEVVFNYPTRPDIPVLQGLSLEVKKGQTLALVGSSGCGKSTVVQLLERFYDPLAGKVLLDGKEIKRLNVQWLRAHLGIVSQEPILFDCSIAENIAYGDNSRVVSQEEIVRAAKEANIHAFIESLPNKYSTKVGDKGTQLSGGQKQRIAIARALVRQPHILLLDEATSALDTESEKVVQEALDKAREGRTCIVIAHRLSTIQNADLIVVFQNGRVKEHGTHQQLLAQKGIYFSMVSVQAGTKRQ
condition-parameters: mouse (L929 or Raw264.7) and human (LCC6MDR), 5 days
property-measured: Paclitaxel resistance of LCC6MDR Therapeutic index

Below, each entry is followed by its recorded Paclitaxel resistance of LCC6MDR Therapeutic index result.
{"smiles-entry": "O=c1cc(-c2ccccc2)oc2cc(OCCCCc3cn(CCOCCOc4ccc(-c5oc6ccccc6c(=O)c5OCc5ccccc5)cc4)nn3)ccc12", "system": "P-gp (Homo sapiens, UniProt P08183)", "result": ">303.0"}
{"smiles-entry": "Cc1ccc2oc(-c3ccc(OCCOCCOCCn4cc(CCCCOc5ccc6c(=O)cc(-c7ccccc7)oc6c5)nn4)cc3)cc(=O)c2c1", "system": "P-gp (Homo sapiens, UniProt P08183)", "result": ">263.2"}
{"smiles-entry": "O=c1cc(-c2ccccc2)oc2cc(OCCOCc3cn(CCOCCOc4ccc(-c5oc6ccccc6c(=O)c5OCc5ccccc5)cc4)nn3)ccc12", "system": "P-gp (Homo sapiens, UniProt P08183)", "result": ">294.1"}

Looking for the measured Paclitaxel resistance of LCC6MDR Therapeutic index of `Cc1ccc2oc(-c3ccc(OCCCCc4cn(CCOCCOCCOc5ccc6c(=O)cc(-c7ccccc7)oc6c5)nn4)cc3)cc(=O)c2c1` , can you help?
>709.2

---

Entries annotated with measured DOX resistance of 2008/MRP1 Therapeutic index
system: MRP1 (Homo sapiens)
Sequence (P33527 whole entry): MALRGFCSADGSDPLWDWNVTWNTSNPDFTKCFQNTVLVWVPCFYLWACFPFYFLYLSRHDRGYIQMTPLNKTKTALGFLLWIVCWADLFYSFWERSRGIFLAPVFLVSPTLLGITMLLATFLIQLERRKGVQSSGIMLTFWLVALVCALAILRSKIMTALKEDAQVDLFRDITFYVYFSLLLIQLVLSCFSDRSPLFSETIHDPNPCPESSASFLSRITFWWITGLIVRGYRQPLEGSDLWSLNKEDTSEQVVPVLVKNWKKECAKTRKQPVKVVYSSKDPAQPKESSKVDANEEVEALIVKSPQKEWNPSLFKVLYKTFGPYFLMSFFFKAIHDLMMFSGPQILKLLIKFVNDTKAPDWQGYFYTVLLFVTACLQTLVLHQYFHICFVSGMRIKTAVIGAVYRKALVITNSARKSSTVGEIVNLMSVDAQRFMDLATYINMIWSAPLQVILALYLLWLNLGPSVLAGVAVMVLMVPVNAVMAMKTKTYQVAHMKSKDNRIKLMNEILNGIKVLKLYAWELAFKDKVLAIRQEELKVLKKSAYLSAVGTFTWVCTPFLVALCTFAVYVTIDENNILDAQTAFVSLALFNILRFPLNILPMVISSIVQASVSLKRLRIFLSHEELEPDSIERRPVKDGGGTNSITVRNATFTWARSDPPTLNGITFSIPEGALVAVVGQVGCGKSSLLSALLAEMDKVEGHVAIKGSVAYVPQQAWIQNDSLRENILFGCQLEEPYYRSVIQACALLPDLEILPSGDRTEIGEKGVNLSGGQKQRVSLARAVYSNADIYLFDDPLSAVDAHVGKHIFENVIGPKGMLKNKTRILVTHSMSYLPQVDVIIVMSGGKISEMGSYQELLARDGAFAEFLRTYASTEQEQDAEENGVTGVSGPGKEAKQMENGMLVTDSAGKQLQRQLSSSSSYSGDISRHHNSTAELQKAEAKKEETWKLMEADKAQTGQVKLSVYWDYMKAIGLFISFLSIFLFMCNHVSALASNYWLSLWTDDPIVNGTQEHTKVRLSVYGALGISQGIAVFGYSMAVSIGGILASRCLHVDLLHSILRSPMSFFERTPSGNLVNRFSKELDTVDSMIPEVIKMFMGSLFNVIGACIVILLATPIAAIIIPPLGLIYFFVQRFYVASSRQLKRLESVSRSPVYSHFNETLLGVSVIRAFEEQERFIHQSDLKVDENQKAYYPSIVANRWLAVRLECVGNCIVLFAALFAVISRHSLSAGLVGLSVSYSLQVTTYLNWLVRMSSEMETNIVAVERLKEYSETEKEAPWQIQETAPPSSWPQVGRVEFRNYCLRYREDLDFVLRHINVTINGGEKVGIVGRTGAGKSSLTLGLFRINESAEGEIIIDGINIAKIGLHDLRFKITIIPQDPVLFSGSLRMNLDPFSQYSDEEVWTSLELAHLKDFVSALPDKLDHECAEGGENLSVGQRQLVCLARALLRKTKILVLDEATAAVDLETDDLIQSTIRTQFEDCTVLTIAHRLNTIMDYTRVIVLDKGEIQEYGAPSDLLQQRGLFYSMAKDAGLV
test-details: Reversal of MRP1-mediated DOX resistance in 2008/MRP1 cells (cell proliferation assay)
condition-parameters: (IC50 towards L929 or Raw264.7)/(EC50 for reversing drug resistance)

{"molecule": "O=c1cc(-c2ccc(OCCOCCOCCn3cc(CN(Cc4ccccc4)Cc4cn(CCOCCOCCOc5ccc(-c6cc(=O)c7ccccc7o6)cc5)nn4)nn3)cc2)oc2ccccc12 [Ac15Az2]", "result": ">188.7"}

Could you share what DOX resistance of 2008/MRP1 Therapeutic index was measured for O=c1cc(-c2ccccc2)oc2cc(OCCN(Cc3ccccc3)Cc3cn(CCOCCOCCOc4ccc(-c5oc6ccccc6c(=O)c5OCc5ccccc5)cc4)nn3)ccc12 [Ac16Az5] , tested on MRP1 (Homo sapiens)?
>331.5

Could you share what DOX resistance of 2008/MRP1 Therapeutic index was measured for Cc1ccc2oc(-c3ccc(OCCCCc4cn(CCOCCOCCOc5ccc6c(=O)cc(-c7ccccc7)oc6c5)nn4)cc3)cc(=O)c2c1 [Ac5Az12] , tested on MRP1 (Homo sapiens)?
>759.3

Could you share what DOX resistance of 2008/MRP1 Therapeutic index was measured for O=c1cc(-c2ccc(OCCOCCOCCn3cc(CCCCOc4ccc5c(=O)cc(-c6ccccc6)oc5c4)nn3)cc2)oc2ccccc12 [Ac12Az2] , tested on MRP1 (Homo sapiens)?
>298.5

Could you share what DOX resistance of 2008/MRP1 Therapeutic index was measured for Cc1ccc2oc(-c3ccc(OCCOCCOCCn4cc(CCCCOc5ccc6c(=O)cc(-c7ccccc7)oc6c5)nn4)cc3)cc(=O)c2c1 [Ac12Az3] , tested on MRP1 (Homo sapiens)?
>333.8

Could you share what DOX resistance of 2008/MRP1 Therapeutic index was measured for O=c1cc(-c2ccccc2)oc2cc(OCCCCc3cn(CCOCCOCCOc4ccc(-c5cc(=O)c6cc(F)ccc6o5)cc4)nn3)ccc12 [Ac12Az4] , tested on MRP1 (Homo sapiens)?
>525.5

Could you share what DOX resistance of 2008/MRP1 Therapeutic index was measured for O=c1cc(-c2ccccc2)oc2cc(OCCOCCOCCn3cc(CN(CCOc4ccc5c(=O)cc(-c6ccccc6)oc5c4)Cc4ccccc4)nn3)ccc12 [Ac16Az12] , tested on MRP1 (Homo sapiens)?
>480.8

Could you share what DOX resistance of 2008/MRP1 Therapeutic index was measured for O=c1cc(-c2ccccc2)oc2cc(OCCCCc3cn(CCOCCOc4ccc(-c5cc(=O)c6cc(F)ccc6o5)cc4)nn3)ccc12 [Ac12Az7] , tested on MRP1 (Homo sapiens)?
>580.4

The values you see were collected from patent US9611256B2.
